Values were extracted from the supplement of paper PMC10567573.

# key: entry, value: protein stability index
B1: FAM46D (parent)
chain: FQEAMTHLQHKLICTRKPEEIRGG

variants of: B1; assay: protein stability index of a GFP-peptide fusion (GPS, HEK-293T) (PSI 1-6); higher = more stable; conditions: c terminus: a fixed tail appended;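 note: lentivirally expressed fusions sorted by FACS into six bins by GFP to DsRed ratio, PSI derived from sequencing read proportions per bin multiplied by bin number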

{"MUTANT DESIGNATION": "I13E", "protein stability index": 3.67}
{"MUTANT DESIGNATION": "L12N", "protein stability index": 4.18}
{"MUTANT DESIGNATION": "T15E", "protein stability index": 3.06}
{"MUTANT DESIGNATION": "K17I", "protein stability index": 2.68}
{"MUTANT DESIGNATION": "I21A", "protein stability index": 3.27}
{"MUTANT DESIGNATION": "Q9Y", "protein stability index": 2.3}
{"MUTANT DESIGNATION": "K11H", "protein stability index": 2.44}
{"MUTANT DESIGNATION": "P18G", "protein stability index": 2.48}
{"MUTANT DESIGNATION": "E19K", "protein stability index": 2.67}
{"MUTANT DESIGNATION": "E3C", "protein stability index": 1.64}
{"MUTANT DESIGNATION": "I21H", "protein stability index": 3.4}
